protocol_details: folding enthalpy; higher = less favourable; fluorescence melt of hairpins on a sequencing array, two-state fit
condition_notes: sodium 0.088 M
Below, each entry is listed alongside its reported folding enthalpy.
Give the number; kJ/mol is assumed, so skip it.

Some entries whose results are on file:
GAAGTGCGAAAGCATTC (((.(((....)))))) ... -56.4
GATCCTATTAAGGATC ((((((....)))))) ... -188

Inquiry: What value of measured folding enthalpy is listed for GCGGTGCGAAAGCCCTGC ((.(.((....)).).)) ?
Reply text: -88.6

====

protocol_details: folding enthalpy; higher = less favourable; fluorescence melt of hairpins on a sequencing array, two-state fit
condition_notes: sodium 0.088 M
Entries are grouped by folding enthalpy into these classes: low: < -30 kcal/mol; medium: ≥ -30 kcal/mol and < -20 kcal/mol; high: ≥ -20 kcal/mol

These solved cases illustrate the format of a correct answer.
GCGTTCGGACGC ((((....)))) ... medium
GATCCAGGAAACTGGACC (.(((((....))))).) ... high
GACGCACCGAAAGGTGTC (((..(((....)))))) ... high
GGACATGAAAATGTCC ((((((....)))))) ... low
GGTTTGGGAAACCAAATC (.(((((....))))).) ... low

Inquiry: In plain terms, what class is GACGAACCGAAAGGTGTC (((..(((....)))))) ?
Reply text: high

Inquiry: In plain terms, what class is GTGCCGGCGAAAGCCCAC (((..(((....)))))) ?
Reply text: high

Inquiry: In plain terms, what class is GGGACTGGAAACAGTCTC (.(((((....))))).) ?
Reply text: medium

Inquiry: In plain terms, what class is GTCGAGGGAAACTTCGGC (.(((.(....).))).) ?
Reply text: medium

Inquiry: In plain terms, what class is GATCGAACCGTCGATC ((((((....)))))) ?
Reply text: low

Inquiry: In plain terms, what class is CGCACGGAAACGTCGGCG ((((((....)))..))) ?
Reply text: medium

Inquiry: In plain terms, what class is GCCCTCGGAAACAAGGGC (((((.(....).))))) ?
Reply text: low

Inquiry: In plain terms, what class is GGGGAATCGAAAGATCCC (((..(((....)))))) ?
Reply text: medium

Inquiry: In plain terms, what class is GCGGCGGTCCGC ((((....)))) ?
Reply text: high

Inquiry: In plain terms, what class is GCTTTGCGAAAGCAAGGC ((.((((....)))).)) ?
Reply text: medium

Inquiry: In plain terms, what class is GAATCCGGAAACGGATTC (((((((....))))))) ?
Reply text: low

====

protocol_details: melting temperature; fluorescence melt of hairpins on a sequencing array, two-state fit, raised by 9.35 °C to match UV melts
condition_notes: sodium 0.088 M
property_name: Tm (°C)
Give the number; °C is assumed, so skip it.

GATTCACGAAAGTGGATC (((.(((....))).))) ... 52.5
GGCCGAGGAAACCCGGCC (((((.(....).))))) ... 65.5
GCCATCACGAAAGTGGGC (((..(((....)))))) ... 47.2

Inquiry: What value of measured Tm is listed for GATCCATGCATGGATC ((((((....)))))) ?
Reply text: 58.8

Inquiry: What value of measured Tm is listed for GATCGGCGTCCCGATC ((((((....)))))) ?
Reply text: 55.4

Inquiry: What value of measured Tm is listed for GTATGTCGAAAGACGTAC (((.(((....))).))) ?
Reply text: 52.8

Inquiry: What value of measured Tm is listed for GCTACGCGAAAGCGCCGC ((..(((....)))..)) ?
Reply text: 36.8

====

protocol_details: melting temperature; fluorescence melt of hairpins on a sequencing array, two-state fit, raised by 9.35 °C to match UV melts
condition_notes: sodium 0.088 M
Below, each entry is listed alongside its reported Tm.
Give the number; °C is assumed, so skip it.

Some entries whose results are on file:
ACTTCGAAAGAAGT (((((....))))) ... 50.8
GACAACGGAAACGTTATC ((.((((....)))).)) ... 31.5
GTACGTGGAAACATGTAC ((((.((....)).)))) ... 47.5

Inquiry: What value of measured Tm is listed for GTGACACCGAAAGGTCAC (((..(((....)))))) ?
Reply text: 47.8

Inquiry: What value of measured Tm is listed for GGGCACGGAAACATGCCC (((((.(....).))))) ?
Reply text: 51.5

Inquiry: What value of measured Tm is listed for AAGGTGAAAACCTT (((((....))))) ?
Reply text: 43.2

Inquiry: What value of measured Tm is listed for GGATACGAAAGTAGCTCC ((((((....)))..))) ?
Reply text: 37.1

Inquiry: What value of measured Tm is listed for GCGTCGCGAAAGCCACGC ((((.((....)).)))) ?
Reply text: 64

Inquiry: What value of measured Tm is listed for GTAGGTCCGAAAGGATAC (((..(((....)))))) ?
Reply text: 28.8

Inquiry: What value of measured Tm is listed for GCTTACCGAAAGGTTAGC (((.(((....))).))) ?
Reply text: 52.8

====

Below, each entry is listed alongside its reported folding enthalpy.
protocol_details: folding enthalpy; higher = less favourable; fluorescence melt of hairpins on a sequencing array, two-state fit
condition_notes: sodium 0.088 M
Give the number; kcal/mol is assumed, so skip it.

Some entries whose results are on file:
GGCCAAGGAAACTTGACC ((.((((....)))).)) ... -30.3
GCGACAGGAAACTGTTGC ((.((((....)))).)) ... -34.4

Inquiry: What value of measured folding enthalpy is listed for GATACGGAAACGTATC ((((((....)))))) ?
Reply text: -43.6

Inquiry: What value of measured folding enthalpy is listed for GGACTCGAAAGAGACTCC ((((((....)))..))) ?
Reply text: -11.6

Inquiry: What value of measured folding enthalpy is listed for GCCAACGAAAGTTAGGC ((((((....))).))) ?
Reply text: -28.9

Inquiry: What value of measured folding enthalpy is listed for GATCGTTTAAACGATC ((((((....)))))) ?
Reply text: -48.9

Inquiry: What value of measured folding enthalpy is listed for GTACGTGGAAACACGTAC (((((((....))))))) ?
Reply text: -46.8

Inquiry: What value of measured folding enthalpy is listed for GCTCAAGGAAACCTGAGC (((((.(....).))))) ?
Reply text: -35.4

Inquiry: What value of measured folding enthalpy is listed for GTGGCCGAAAGGCATCAC ((((((....)))..))) ?
Reply text: -11.8

Inquiry: What value of measured folding enthalpy is listed for GGTCATCGAAAGATCACC (((.(((....))).))) ?
Reply text: -30.2

====

protocol_details: melting temperature; fluorescence melt of hairpins on a sequencing array, two-state fit, raised by 9.35 °C to match UV melts
condition_notes: sodium 0.088 M
Binary classification by Tm, with 50 °C as an inclusive lower bound for yes; all other cases are no.

These solved cases illustrate the format of a correct answer.
GATCTGAAACAGATC ((((((...)))))) ... no
GCTGAGGGAAACCTCGGC ((.((((....)))).)) ... yes
GGCAGCTCGAAAGAGGCC (((..(((....)))))) ... no
GATCTATTGATAGATC ((((((....)))))) ... no
GAGTGTGGAAACATACTC ((((.((....)).)))) ... no
GATACCGAAAGGTAAATC ((((((....)))..))) ... no

Inquiry: Form field: Tm at least 50 °C? Entry: GCTTTCGAAAGAATTAGC ((((((....)))..)))
Reply text: no

Inquiry: Form field: Tm at least 50 °C? Entry: GTCGCTGGAAACGGCGAC (((((.(....).)))))
Reply text: yes

Inquiry: Form field: Tm at least 50 °C? Entry: GATCACTACGGTGATC ((((((....))))))
Reply text: yes

Inquiry: Form field: Tm at least 50 °C? Entry: GCTTCAGGAAACTAAAGC ((((.((....)).))))
Reply text: no

Inquiry: Form field: Tm at least 50 °C? Entry: AAGTCGAAAGACTT (((((....)))))
Reply text: yes

====

protocol_details: folding enthalpy; higher = less favourable; fluorescence melt of hairpins on a sequencing array, two-state fit
condition_notes: sodium 0.088 M
property_name: folding enthalpy (kcal/mol)
Give the number; kcal/mol is assumed, so skip it.

Some entries whose results are on file:
GATCCTTAAAGGATC ((((((...)))))) ... -33.7
GCGGATACCGC ((((...)))) ... -25.8
GCTCCGCGAAAGCGTGGC ((..(((....)))..)) ... -15.7

In the following, a different sequence is considered.
Inquiry: What value of measured folding enthalpy is listed for GGATCCGGAAACGGACCC ((.((((....)))).)) ?
Reply text: -21.2
